biological target: Histone-lysine N-methyltransferase EZH2 (Homo sapiens)
Sequence (Q15910 whole entry): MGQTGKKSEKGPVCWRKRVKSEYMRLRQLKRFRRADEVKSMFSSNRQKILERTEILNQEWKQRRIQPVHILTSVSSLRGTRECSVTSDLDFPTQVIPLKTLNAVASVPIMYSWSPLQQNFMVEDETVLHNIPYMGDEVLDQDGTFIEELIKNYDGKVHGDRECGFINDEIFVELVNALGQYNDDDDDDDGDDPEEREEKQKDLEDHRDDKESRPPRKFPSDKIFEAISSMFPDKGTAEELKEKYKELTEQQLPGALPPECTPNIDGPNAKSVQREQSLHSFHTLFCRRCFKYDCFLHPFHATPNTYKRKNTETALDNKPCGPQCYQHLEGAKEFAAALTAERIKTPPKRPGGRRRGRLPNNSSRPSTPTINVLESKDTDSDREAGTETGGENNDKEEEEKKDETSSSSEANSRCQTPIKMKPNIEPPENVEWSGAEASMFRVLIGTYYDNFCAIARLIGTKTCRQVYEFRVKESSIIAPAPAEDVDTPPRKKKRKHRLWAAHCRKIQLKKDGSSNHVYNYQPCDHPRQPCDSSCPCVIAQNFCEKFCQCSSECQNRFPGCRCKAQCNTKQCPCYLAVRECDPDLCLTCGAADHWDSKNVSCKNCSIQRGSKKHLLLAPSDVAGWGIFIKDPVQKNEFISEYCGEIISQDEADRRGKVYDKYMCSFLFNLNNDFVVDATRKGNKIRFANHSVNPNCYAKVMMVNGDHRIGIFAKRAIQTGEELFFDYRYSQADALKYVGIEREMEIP
pIC50: −log10 of the molar value.

{"columns": ["smiles_structure", "pIC50"],
 "data": [
  ["CC#CC(=O)NC12CC(NC3=C(Cl)C(=O)c4ncccc4C3=O)(C1)C2", 6.60]
]}

----------
target: Protein arginine N-methyltransferase 1 (Homo sapiens, UniProt Q99873)
Sequence (Q99873 whole entry): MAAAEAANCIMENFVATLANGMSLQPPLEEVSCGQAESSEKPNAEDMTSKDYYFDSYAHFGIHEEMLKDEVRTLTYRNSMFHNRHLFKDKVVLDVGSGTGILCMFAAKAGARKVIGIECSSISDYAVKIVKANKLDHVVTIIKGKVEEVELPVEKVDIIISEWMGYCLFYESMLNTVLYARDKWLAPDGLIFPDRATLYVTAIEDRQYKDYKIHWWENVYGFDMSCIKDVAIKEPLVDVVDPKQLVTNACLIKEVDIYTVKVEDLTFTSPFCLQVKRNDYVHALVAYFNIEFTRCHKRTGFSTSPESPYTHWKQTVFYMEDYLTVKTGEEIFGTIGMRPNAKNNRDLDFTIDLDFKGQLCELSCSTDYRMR
parameter: IC50

{"columns": ["smiles_structure", "parameter", "reading"],
 "data": [
  ["CC#CC(=O)NC12CC(NC3=C(Cl)C(=O)c4ncccc4C3=O)(C1)C2", "IC50", "> 10 µM"]
]}

----------
experiment: Oral bioavailability in ICR mouse at 3 mg/kg measured for 24 hrs by LC-MS/MS analysis; type: ADME, organism-based; details: in vivo
parameter: bioavailability (%)

{"columns": ["smiles_structure", "reading"],
 "data": [
  ["CC(F)(F)C(=O)NC12CC(NC3=C(Cl)C(=O)c4ncccc4C3=O)(C1)C2", 53.1]
]}

----------
target: Histone-lysine N-methyltransferase NSD2 (Homo sapiens); test: Inhibition of human NSD2 (934 to 1241 residues) expressed in Escherichia coli BL21 (DE3) using [3H]-SAM as substrate incubated for 1 hr by TopCount radioactivity counter
pIC50: −log10 of the molar value.
parameter: pIC50

{"columns": ["smiles_structure", "reading"],
 "data": [
  ["Nc1ncnc2c1ncn2[C@@H]1O[C@H](C[C@@H](N)CC[C@H](N)C(=O)O)[C@@H](O)[C@H]1O", 4.10]
]}

----------
biological target: Histone-lysine N-methyltransferase NSD2 (Homo sapiens, UniProt O96028); test: Inhibition of recombinant human NSD2 (941 to 1240 residues) using SAM as substrate incubated for 3 hrs by AlphaLISA assay
Sequence (O96028 whole entry, the tested form may be a part): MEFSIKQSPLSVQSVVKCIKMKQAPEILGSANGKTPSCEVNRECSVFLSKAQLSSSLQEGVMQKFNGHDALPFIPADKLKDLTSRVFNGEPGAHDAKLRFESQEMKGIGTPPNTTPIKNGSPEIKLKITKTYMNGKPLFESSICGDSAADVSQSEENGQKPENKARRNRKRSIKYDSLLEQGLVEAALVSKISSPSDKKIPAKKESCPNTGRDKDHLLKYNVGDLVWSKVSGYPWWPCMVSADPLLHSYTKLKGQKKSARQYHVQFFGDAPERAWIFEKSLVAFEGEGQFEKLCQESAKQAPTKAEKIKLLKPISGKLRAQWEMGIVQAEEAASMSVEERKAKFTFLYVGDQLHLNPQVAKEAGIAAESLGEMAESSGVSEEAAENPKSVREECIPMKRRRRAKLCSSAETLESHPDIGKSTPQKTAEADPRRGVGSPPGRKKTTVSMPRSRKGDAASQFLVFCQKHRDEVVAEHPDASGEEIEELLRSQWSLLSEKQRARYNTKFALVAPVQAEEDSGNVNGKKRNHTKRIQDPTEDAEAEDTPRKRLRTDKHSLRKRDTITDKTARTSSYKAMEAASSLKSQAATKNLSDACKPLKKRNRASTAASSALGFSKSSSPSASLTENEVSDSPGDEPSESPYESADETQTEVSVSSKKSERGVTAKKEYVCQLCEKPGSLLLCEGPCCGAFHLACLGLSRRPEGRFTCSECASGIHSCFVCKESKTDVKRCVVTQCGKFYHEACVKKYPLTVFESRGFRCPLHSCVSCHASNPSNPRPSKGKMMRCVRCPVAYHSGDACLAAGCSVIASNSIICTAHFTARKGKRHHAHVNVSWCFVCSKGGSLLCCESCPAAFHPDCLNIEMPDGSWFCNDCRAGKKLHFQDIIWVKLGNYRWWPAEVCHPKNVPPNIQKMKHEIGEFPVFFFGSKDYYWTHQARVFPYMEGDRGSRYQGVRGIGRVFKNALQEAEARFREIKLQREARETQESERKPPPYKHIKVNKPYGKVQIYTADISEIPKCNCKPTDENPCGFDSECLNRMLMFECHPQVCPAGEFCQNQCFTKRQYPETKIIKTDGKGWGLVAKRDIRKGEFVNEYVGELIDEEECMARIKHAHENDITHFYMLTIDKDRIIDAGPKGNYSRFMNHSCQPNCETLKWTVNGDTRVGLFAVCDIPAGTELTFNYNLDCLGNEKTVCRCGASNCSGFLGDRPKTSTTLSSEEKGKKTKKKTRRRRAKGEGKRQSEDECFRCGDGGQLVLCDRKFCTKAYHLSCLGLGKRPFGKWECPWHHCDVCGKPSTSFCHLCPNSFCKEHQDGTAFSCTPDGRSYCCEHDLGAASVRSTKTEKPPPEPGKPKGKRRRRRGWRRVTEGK

{"columns": ["compound", "target_under_test", "IC50, µM"],
 "data": [
  ["CC(F)(F)C(=O)NCCC1CN(C2=C(Cl)C(=O)c3cccnc3C2=O)C1", "Histone-lysine N-methyltransferase NSD2 (Homo sapiens, UniProt O96028)", 0.38],
  ["C[C@@](O)(C(=O)NC12CC(NC3=C(Cl)C(=O)c4cccnc4C3=O)(C1)C2)C(F)(F)F", "Histone-lysine N-methyltransferase NSD2 (Homo sapiens, UniProt O96028)", 0.42],
  ["O=C1C(Cl)=C(NCCc2c[nH]c3ccccc23)C(=O)c2ncccc21", "Histone-lysine N-methyltransferase NSD2 (Homo sapiens, UniProt O96028)", 0.45],
  ["C[C@@](O)(C(=O)NC12CC(NC3=CC(=O)c4ncccc4C3=O)(C1)C2)C(F)(F)F", "Histone-lysine N-methyltransferase NSD2 (Homo sapiens, UniProt O96028)", 1.29],
  ["CC(F)(F)C(=O)NC12CC(NC3=C(Cl)C(=O)c4cccnc4C3=O)(C1)C2", "Histone-lysine N-methyltransferase NSD2 (Homo sapiens, UniProt O96028)", 0.3],
  ["C[C@@](O)(C(=O)N1CCC(O)(CCNC2=C(Cl)C(=O)c3ncccc3C2=O)CC1)C(F)(F)F", "Histone-lysine N-methyltransferase NSD2 (Homo sapiens, UniProt O96028)", 0.99],
  ["CC#CC(=O)NC1CN(C2=C(Cl)C(=O)c3ncccc3C2=O)C1", "Histone-lysine N-methyltransferase NSD2 (Homo sapiens, UniProt O96028)", 0.59],
  ["O=C1C(NC23CC(NC(=O)C4CC4(F)F)(C2)C3)=C(Cl)C(=O)c2ncccc21 (centres undefined)", "Histone-lysine N-methyltransferase NSD2 (Homo sapiens, UniProt O96028)", 1.46],
  ["CC#CC(=O)N1CCC2(CC1)CN(C1=C(Cl)C(=O)c3ncccc3C1=O)C2", "Histone-lysine N-methyltransferase NSD2 (Homo sapiens, UniProt O96028)", 2.48]
]}

----------
Target: Histone-lysine N-methyltransferase NSD3 (Homo sapiens)
Sequence (Q9BZ95 whole entry): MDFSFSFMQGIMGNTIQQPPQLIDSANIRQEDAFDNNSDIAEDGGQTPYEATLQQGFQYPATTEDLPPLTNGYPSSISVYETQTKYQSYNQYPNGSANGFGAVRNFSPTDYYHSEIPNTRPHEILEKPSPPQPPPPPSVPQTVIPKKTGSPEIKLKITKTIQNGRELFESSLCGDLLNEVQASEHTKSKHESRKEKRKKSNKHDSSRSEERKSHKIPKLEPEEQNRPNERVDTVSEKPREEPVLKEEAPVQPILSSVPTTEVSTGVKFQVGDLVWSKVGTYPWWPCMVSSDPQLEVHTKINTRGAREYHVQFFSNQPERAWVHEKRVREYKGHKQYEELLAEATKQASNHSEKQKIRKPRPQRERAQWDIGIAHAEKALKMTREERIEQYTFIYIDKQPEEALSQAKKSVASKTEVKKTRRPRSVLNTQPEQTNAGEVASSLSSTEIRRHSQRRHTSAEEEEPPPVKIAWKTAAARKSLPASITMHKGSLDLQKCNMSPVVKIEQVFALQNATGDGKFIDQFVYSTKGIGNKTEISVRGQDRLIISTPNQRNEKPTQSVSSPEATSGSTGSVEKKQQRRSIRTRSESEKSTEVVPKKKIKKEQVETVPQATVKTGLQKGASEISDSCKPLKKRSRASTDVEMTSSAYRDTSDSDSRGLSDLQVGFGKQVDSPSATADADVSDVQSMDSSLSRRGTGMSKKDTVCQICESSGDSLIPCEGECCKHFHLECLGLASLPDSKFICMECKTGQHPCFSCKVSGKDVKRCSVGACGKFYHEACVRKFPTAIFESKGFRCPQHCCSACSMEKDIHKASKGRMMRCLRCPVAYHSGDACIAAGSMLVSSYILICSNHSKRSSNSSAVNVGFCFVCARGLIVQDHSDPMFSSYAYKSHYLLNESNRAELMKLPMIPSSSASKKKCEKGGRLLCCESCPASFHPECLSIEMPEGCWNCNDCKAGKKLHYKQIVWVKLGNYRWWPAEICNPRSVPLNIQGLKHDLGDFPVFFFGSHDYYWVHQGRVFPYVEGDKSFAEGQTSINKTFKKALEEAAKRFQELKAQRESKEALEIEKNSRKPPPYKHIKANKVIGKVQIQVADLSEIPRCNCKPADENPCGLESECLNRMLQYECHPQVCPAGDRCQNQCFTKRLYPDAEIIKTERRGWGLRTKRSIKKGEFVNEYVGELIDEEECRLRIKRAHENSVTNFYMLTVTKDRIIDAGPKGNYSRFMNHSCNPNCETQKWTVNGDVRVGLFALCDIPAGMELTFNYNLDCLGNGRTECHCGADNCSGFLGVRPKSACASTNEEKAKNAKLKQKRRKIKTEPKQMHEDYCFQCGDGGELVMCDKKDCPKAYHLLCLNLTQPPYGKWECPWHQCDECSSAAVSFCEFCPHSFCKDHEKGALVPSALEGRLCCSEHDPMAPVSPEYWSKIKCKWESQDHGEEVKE

{"columns": ["smiles_structure", "target_under_test", "IC50 / µM"],
 "data": [
  ["O=C1C(Cl)=C(NCCN2CCOCC2)C(=O)c2ncccc21", "Histone-lysine N-methyltransferase NSD3 (Homo sapiens)", 0.34],
  ["CC#CC(=O)NC12CC(NC3=C(Cl)C(=O)c4ncccc4C3=O)(C1)C2", "Histone-lysine N-methyltransferase NSD3 (Homo sapiens)", 0.75]
]}

----------
assay: Apparent permeability coefficient, Papp in MDCK cells; assay type: ADME, cell-based, Canis lupus familiaris; conditions: dog

{"columns": ["molecule", "scale_unit", "Papp"],
 "data": [
  ["CC(C)(O)[C@H](F)CNC1=C(Cl)C(=O)c2cccnc2C1=O", "×10⁻⁶ cm/s", 30.8],
  ["CC(C)(O)[C@H](F)CNC1=C(Cl)C(=O)c2ccc(Cl)nc2C1=O", "×10⁻⁶ cm/s", 29],
  ["CC(F)(F)C(=O)NC12CC(NC3=C(Cl)C(=O)c4cccnc4C3=O)(C1)C2", "×10⁻⁶ cm/s", 44.4],
  ["O=C1C(Cl)=C(NCCC2(O)CCN(C(=O)C3CC3(F)F)CC2)C(=O)c2ncccc21 (stereo not given)", "×10⁻⁶ cm/s", 21.5],
  ["CC(F)(F)C(=O)NC12CC(NC3=C(Cl)C(=O)c4ncccc4C3=O)(C1)C2", "×10⁻⁶ cm/s", 49.4],
  ["O=C1C(Cl)=C(NCCN2CCOCC2)C(=O)c2ncccc21", "×10⁻⁶ cm/s", 31.2],
  ["O=C1C(Cl)=C(NC2CCc3ccccc32)C(=O)c2ncccc21 (stereo not given)", "×10⁻⁶ cm/s", 28.8],
  ["C[C@@](O)(C(=O)N1CCC(O)(CCNC2=C(Cl)C(=O)c3cccnc3C2=O)CC1)C(F)(F)F", "×10⁻⁶ cm/s", 17.8],
  ["CC#CC(=O)NC12CC(NC3=C(Cl)C(=O)c4cccnc4C3=O)(C1)C2", "×10⁻⁶ cm/s", 42],
  ["CC#CC(=O)NC12CC(NC3=C(Cl)C(=O)c4ncccc4C3=O)(C1)C2", "×10⁻⁶ cm/s", 45]
]}
